meta.source: ChEMBL document CHEMBL1201862

- Test system: SK-MEL-5
- EXPERIMENTAL DETAILS: NCI tumour cell line growth inhibition, 48 h
Calls of active or inactive are those of the source. Cut-off read from the data, not from the text of the source: active = GI50 up to about 1.1 µM and inactive = higher.
# GI50 listing for each entry below

• O=C1N[C@@H](O)[C@@H]2ON=C(c3ccccc3)[C@H]12 = > 100 µM (inactive)

What measured GI50 is associated with COc1ccc2c(c1)CCN=C2c1ccccc1CCCCl on SK-MEL-5?
4.99 µM (inactive)

What measured GI50 is associated with CCOC(=O)/C=C1\C[C@H](NC(=O)OCc2ccccc2)C(=O)N1CC(=O)OCC on SK-MEL-5?
> 100 µM (inactive)

What measured GI50 is associated with CC(=O)OC/C=C/Cn1nc(Br)c(=O)[nH]c1=O on SK-MEL-5?
> 100 µM (inactive)

What measured GI50 is associated with Cn1c(=O)nc2n(-c3cccc(Br)c3)c3ccccc3nc-2c1=O on SK-MEL-5?
1.75 µM (inactive)

What measured GI50 is associated with CCC1c2[nH]c3ccccc3c2C[C@H]2C(=O)NC(COC(C)(C)C)C(=O)N12 (stereo partly specified) on SK-MEL-5?
27.8 µM (inactive)
